Molecular target: Human C3 (Complement tech cat #A113c) (human, UniProt P01024 23-1663)
Sequence (P01024 23-1663 limits assumed): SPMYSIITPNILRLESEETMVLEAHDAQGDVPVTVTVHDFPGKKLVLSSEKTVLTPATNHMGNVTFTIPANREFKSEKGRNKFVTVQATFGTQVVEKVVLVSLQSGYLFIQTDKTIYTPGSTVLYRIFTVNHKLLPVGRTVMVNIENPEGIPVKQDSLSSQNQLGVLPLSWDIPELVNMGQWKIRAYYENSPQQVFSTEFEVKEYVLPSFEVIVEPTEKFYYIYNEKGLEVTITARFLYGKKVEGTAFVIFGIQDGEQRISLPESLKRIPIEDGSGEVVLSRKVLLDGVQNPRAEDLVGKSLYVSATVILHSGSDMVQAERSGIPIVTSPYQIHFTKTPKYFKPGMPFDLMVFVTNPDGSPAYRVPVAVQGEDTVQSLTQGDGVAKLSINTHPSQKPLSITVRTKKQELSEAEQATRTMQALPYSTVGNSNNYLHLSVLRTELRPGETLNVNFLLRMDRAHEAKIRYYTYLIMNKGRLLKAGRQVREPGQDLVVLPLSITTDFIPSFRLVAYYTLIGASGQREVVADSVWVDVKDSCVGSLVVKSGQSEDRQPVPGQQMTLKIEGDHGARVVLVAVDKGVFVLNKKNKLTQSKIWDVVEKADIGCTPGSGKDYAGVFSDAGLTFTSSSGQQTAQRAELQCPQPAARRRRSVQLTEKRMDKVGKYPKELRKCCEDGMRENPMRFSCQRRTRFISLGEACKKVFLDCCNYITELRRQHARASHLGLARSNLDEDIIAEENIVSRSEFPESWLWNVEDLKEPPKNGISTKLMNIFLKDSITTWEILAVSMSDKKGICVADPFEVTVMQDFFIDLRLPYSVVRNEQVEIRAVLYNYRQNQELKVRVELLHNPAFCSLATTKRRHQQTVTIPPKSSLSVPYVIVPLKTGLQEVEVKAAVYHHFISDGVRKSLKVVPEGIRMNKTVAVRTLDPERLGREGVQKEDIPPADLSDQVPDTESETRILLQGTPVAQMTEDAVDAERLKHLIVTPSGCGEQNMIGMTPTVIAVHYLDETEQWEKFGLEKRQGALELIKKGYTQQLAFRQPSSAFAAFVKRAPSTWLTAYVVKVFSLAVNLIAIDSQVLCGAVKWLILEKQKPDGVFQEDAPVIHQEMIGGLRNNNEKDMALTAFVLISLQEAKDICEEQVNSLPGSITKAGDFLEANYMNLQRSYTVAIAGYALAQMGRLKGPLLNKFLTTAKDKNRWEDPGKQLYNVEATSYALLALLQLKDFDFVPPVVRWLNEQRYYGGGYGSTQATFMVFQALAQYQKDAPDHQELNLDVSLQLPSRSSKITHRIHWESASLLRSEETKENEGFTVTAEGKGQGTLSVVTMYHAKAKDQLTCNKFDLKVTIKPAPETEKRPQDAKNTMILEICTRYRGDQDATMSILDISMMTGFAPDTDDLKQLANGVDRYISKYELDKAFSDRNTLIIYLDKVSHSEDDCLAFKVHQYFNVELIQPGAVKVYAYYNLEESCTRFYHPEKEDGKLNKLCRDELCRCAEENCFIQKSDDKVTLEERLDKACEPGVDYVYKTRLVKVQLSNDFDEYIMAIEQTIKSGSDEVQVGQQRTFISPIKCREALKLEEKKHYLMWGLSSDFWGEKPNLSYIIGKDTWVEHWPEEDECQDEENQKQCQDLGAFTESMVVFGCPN
Experiment: cell-based or functional assay
Positions of bridges follow the written chain, without caps; N, C: chain ends. Non-standard residues stand in square brackets, D forms with d. Trp(1-Me) = Cn1cc(C[C@H](N)C(=O)O)c2ccccc21; Sar = CNCC(=O)O
quantity: inhibition of hemolysis IC50

binder	inhibition of hemolysis IC50
H-[dY][Sar]CI[Trp(1-Me)]QDWGEHRCTEA-NH2 (disulfide 3-13; SMILES CC[C@H](C)[C@@H]1NC(=O)[C@@H](NC(=O)CN(C)C(=O)[C@H](N)Cc2ccc(O)cc2)CSSC[C@@H](C(=O)N[C@H](C(=O)N[C@@H](CCC(=O)O)C(=O)N[C@@H](C)C(N)=O)[C@@H](C)O)NC(=O)[C@H](CCCNC(=N)N)NC(=O)[C@H](Cc2c[nH]cn2)NC(=O)[C@H](CCC(=O)O)NC(=O)CNC(=O)[C@H](Cc2c[nH]c3ccccc23)NC(=O)[C@H](CC(=O)O)NC(=O)[C@H](CCC(N)=O)NC(=O)[C@H](Cc2cn(C)c3ccccc23)NC1=O) [Compound 91]	< 100 nM
Ac-ICIWQDWGAHSCT-NH2 (disulfide 2-12; SMILES CC[C@H](C)[C@H](NC(C)=O)C(=O)N[C@H]1CSSC[C@@H](C(=O)N[C@H](C(N)=O)[C@@H](C)O)NC(=O)[C@H](CO)NC(=O)[C@H](Cc2c[nH]cn2)NC(=O)[C@H](C)NC(=O)CNC(=O)[C@H](Cc2c[nH]c3ccccc23)NC(=O)[C@H](CC(=O)O)NC(=O)[C@H](CCC(N)=O)NC(=O)[C@H](Cc2c[nH]c3ccccc23)NC(=O)[C@H]([C@@H](C)CC)NC1=O) [Compound 19]	< 250 nM
Ac-ICIWQDWGEHRCTE-NH2 (disulfide 2-12; SMILES CC[C@H](C)[C@H](NC(C)=O)C(=O)N[C@H]1CSSC[C@@H](C(=O)N[C@H](C(=O)N[C@@H](CCC(=O)O)C(N)=O)[C@@H](C)O)NC(=O)[C@H](CCCNC(=N)N)NC(=O)[C@H](Cc2c[nH]cn2)NC(=O)[C@H](CCC(=O)O)NC(=O)CNC(=O)[C@H](Cc2c[nH]c3ccccc23)NC(=O)[C@H](CC(=O)O)NC(=O)[C@H](CCC(N)=O)NC(=O)[C@H](Cc2c[nH]c3ccccc23)NC(=O)[C@H]([C@@H](C)CC)NC1=O) [Compound 26]	< 100 nM

# evaluate next
Q: Indicate the recorded inhibition of hemolysis IC50 value for this binder: Ac-ICIWQDWGKHRCT-NH2 (disulfide 2-12; SMILES CC[C@H](C)[C@H](NC(C)=O)C(=O)N[C@H]1CSSC[C@@H](C(=O)N[C@H](C(N)=O)[C@@H](C)O)NC(=O)[C@H](CCCNC(=N)N)NC(=O)[C@H](Cc2c[nH]cn2)NC(=O)[C@H](CCCCN)NC(=O)CNC(=O)[C@H](Cc2c[nH]c3ccccc23)NC(=O)[C@H](CC(=O)O)NC(=O)[C@H](CCC(N)=O)NC(=O)[C@H](Cc2c[nH]c3ccccc23)NC(=O)[C@H]([C@@H](C)CC)NC1=O) [Compound 5]
Result: < 250 nM

Where these numbers come from: patent US11965039B2
